experimental target: WT hA3ARs (Homo sapiens, UniProt P0DMS8)
Construct: The full-length mouse (as previously described^25), human (purchased from the cDNA Resource Center), and human/mouse chimeric
Sequence (P0DMS8 whole entry): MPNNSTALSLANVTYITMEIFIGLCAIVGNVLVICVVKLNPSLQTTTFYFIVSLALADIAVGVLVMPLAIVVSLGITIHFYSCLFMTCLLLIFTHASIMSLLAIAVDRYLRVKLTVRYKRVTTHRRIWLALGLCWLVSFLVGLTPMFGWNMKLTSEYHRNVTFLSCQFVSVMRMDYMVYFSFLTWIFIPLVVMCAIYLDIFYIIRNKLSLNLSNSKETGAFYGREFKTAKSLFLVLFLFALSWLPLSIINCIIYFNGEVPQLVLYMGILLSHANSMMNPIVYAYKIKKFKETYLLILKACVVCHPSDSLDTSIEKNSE
method notes: [35S]GTPγS binding assay, Cl-IB-MECA concentration-response with modulator, HEK293 cell membranes
Assay type: biochemical
run conditions: ratio of IC50 values for Cl-IB-MECA, DMSO control compared to 100 nM PAM derivative; Table 3
Record form. Attribute: IC50 ratio. Fill in for each entry.
No unit in the answer, please; the number alone is enough.

Enquiry: GET IC50 ratio where system = WT hA3ARs (Homo sapiens, UniProt P0DMS8) and item = OCCn1c(C2CCCCC2)nc2c(Nc3ccc(Cl)c(Cl)c3)nc3ccccc3c21
Return: 0.764

Enquiry: Recall the reported IC50 ratio of Cn1c(C2CCCCC2)nc2c(Nc3ccc(Cl)c(Cl)c3)nc3ccccc3c21 on WT hA3ARs (Homo sapiens, UniProt P0DMS8) and write it down.
Return: 1.12

Enquiry: Check WT hA3ARs (Homo sapiens, UniProt P0DMS8) data and give IC50 ratio for Clc1ccc(Nc2nc3ccccc3c3oc(C4CCCCC4)nc23)cc1Cl [41 (RK005-84-1, BS1002)] .
Return: 0.406

Enquiry: Name the recorded IC50 ratio of Clc1ccc(Nc2nc3ccccc3c3sc(C4CCCCC4)nc23)cc1Cl [42 (RK005-79-1, BS1001)] , assay system WT hA3ARs (Homo sapiens, UniProt P0DMS8).
Return: 0.505

Enquiry: Write IC50 ratio of Clc1ccc(Oc2nc3ccccc3c3[nH]c(C4CCCCC4)nc23)cc1Cl [46 (RK007-4-1, BS1006)] ; system used: WT hA3ARs (Homo sapiens, UniProt P0DMS8)
Return: 0.738

Enquiry: # assay system WT hA3ARs (Homo sapiens, UniProt P0DMS8): give IC50 ratio of Clc1ccc(Sc2nc3ccccc3c3[nH]c(C4CCCCC4)nc23)cc1Cl [47 (RK007-2-1, BS1005)]
Return: 1.11

Enquiry: Report the value of IC50 ratio obtained on WT hA3ARs (Homo sapiens, UniProt P0DMS8) for CN(c1ccc(Cl)c(Cl)c1)c1nc2ccccc2c2[nH]c(C3CCCCC3)nc12 [45 (RK006-100-1, BS1007)] .
Return: 0.491
